Just for reference, the supplement of paper PMC9233669 is where these values come from.

# System: biotinyl-Ile-oxazolone
# Experimental details: self-aminoacylation, catalytic enhancement (BIO) (fold over background); higher = more active; k-Seq, kA / k0A0; sequences stand for … in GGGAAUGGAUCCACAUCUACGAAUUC…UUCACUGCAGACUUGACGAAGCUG
This sample holds only a part of the variants without activity.
Measured property: self-aminoacylation

1. CUAGUUAAAACAAUCGGUCUG [Fam1A.1 aminoacylation ribozyme variant] = 0.795
2. CCAUACUUCAAGCGAUCGGUC [Fam1B.1 aminoacylation ribozyme variant] = 1.15
3. AUUGACCUAGGUCAUCUGGUG [Fam2.2 aminoacylation ribozyme variant] = 1.83
4. AUUCACCUAGGUCAUGGGGUC [Fam2.2 aminoacylation ribozyme variant] = 1.32
